Numbers sourced from ChEMBL document CHEMBL1201862.

molecules and their reported GI50
# System: COLO 205
# protocol: NCI tumour cell line growth inhibition, 48 h
Calls of active or inactive are those of the source. Cut-off read from the data, not from the text of the source: active = GI50 up to about 1.1 µM and inactive = higher. Numbered stars: 1 amine (or outer) side, 2 acyl side, 3 side chain; on linkers, the order of the positions; unused ones are H or OH. Bridge positions count the residues as written; N and C are the ends. Square brackets hold non-standard residues; d marks the D form. Peptide text beside a SMILES is read from it. X58 = COc1c(N[*:1])cccc1C(=O)O[C@H](C(=O)[C@H](C)C(=O)[*:2])C(C)C; X57 = CC(C)C[C@H](C(=O)[*:2])C(C)C(=O)C1CCCN1[*:1]; NMeY = CN[C@@H](Cc1ccc(O)cc1)C(=O)O; Lac = C[C@H](O)C(=O)O

# molecule, GI50
measured = [
    ("CCOc1cc(/C=C/C=C/C=C/c2ccc(N(C)C)cc2)[s+]c2ccccc12", "41.1 µM (inactive)"),
    ("C[C@@H]1CCC2C(C)(C)C(/C=C\\C=O)C3(C)OC213 (some centres not stated)", "25.4 µM (inactive)"),
    ("CCC(C)C1=C(O)[N+]2([O-])Oc3ccc(-c4c(O)c(O)c(-c5ccc(O)cc5)c(OC(C)=O)c4OC(C)=O)cc3OC2(C(C)CC)C(=O)N1O (configuration not stated)", "> 50 µM (inactive)"),
    ("COc1ccc2nc(C(=O)c3ccccc3)c(C)cc2c1", "5.93 µM (inactive)"),
    ("O=C1CC23CCCCCCCCCCC2(C1)CC(=O)C3 (configuration not stated)", "18.4 µM (inactive)"),
    ("CN(CCSCCN(C)C(=O)OC(C)(C)C)C(=O)OC(C)(C)C", "> 100 µM (inactive)"),
    ("Cc1ccc(S(=O)(=O)n2c(-c3ccccc3)c(-c3ccccc3)c3ccccc32)cc1", "> 100 µM (inactive)"),
    ("COC(=O)C(CCCCCCCC(C(=O)OC)C1=Nc2nnc(N)n2C1=O)C1=Nc2nnc(N)n2C1=O (configuration not stated)", "> 100 µM (inactive)"),
    ("C[Si](C)(C)CC(N)=O", "> 100 µM (inactive)"),
    ("CN(C)Cc1cc(/C=C/C(=O)c2ccc(Br)cc2)cc(CN(C)C)c1O", "14.6 µM (inactive)"),
    ("Cc1ccc(S(N)(=O)=O)cc1 [P-TOLUENESULFONAMIDE]", "> 1000 µM (inactive)"),
    ("O=C(O)C1C2C=CC(C2)C1c1ccccc1 (configuration not stated)", "> 100 µM (inactive)"),
    ("O=C(O)Cc1cccc2c(=O)c3cccc([N+](=O)[O-])c3oc12", "> 100 µM (inactive)"),
    ("Cc1oc2c(cc(O)c3cc(O)ccc32)c2cccc1-2", "> 100 µM (inactive)"),
    ("COc1ccc(-c2cc(=O)c3ccc(O)cc3o2)cc1OC", "68.4 µM (inactive)"),
    ("CCN1C(=O)/C(=C\\c2coc3ccccc3c2=O)SC1=S", "> 100 µM (inactive)"),
    ("COc1ccc(C[C@H]2C(=O)O[C@H](C)[C@H](NC(=O)[C@@H](CC(C)C)C(C)C(=O)C3CCCN3C(=O)[C@H](C)O)C(=O)Nc3cccc(c3OC)C(=O)O[C@@H](C(C)C)C(=O)[C@H](C)C(=O)N[C@@H](CC(C)C)C(=O)N3CCC[C@H]3C(=O)N2C)cc1 (some centres not stated) (H-[Lac][X57]T[X58]LP[NMeY](Me); ester 3-C)", "9.29 µM (inactive)"),
    ("C=CC1(C(=O)O)CCC(C(C)(C)C)CC1 (configuration not stated)", "> 100 µM (inactive)"),
    ("O=C1c2ccccc2CC12Cc1ccc3c(c1C2=O)CCCC3 (configuration not stated)", "13 µM (inactive)"),
    ("C=C1c2nc3ccccc3n2C=C(c2ccccc2)N1c1ccc(OC)cc1", "25.4 µM (inactive)"),
    ("O=C(NCCCCCCNC(=O)n1cc(F)c(=O)[nH]c1=O)NCCCOCCOCCCNC(=O)C(O)C(O)C(O)C(O)CO (configuration not stated)", "> 2.5 µM (inactive)"),
    ("O=C1Nc2ccc(Cl)cc2C(=O)N2CCC[C@@H]12", "> 100 µM (inactive)"),
]
